# assay: chemical genetic growth profiling, strain panel (AID 1159580);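 note: tested at 20 µM; growth read once vehicle control cultures reached saturation at 30 °C; 1 = growth at the plate median or of vehicle wells; lower values mean less growth of the strain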
# experimental setup: S. cerevisiae deletion strains, growth OD, locus YLR262C, strain YPT6, active compounds read low
Hit rate of the full screen: of about 5,500 compounds, about 2,000 (36%) were called active. Another 18% or so got no clear call; they are omitted. This is one part of the list.
assay metric: normalized growth
No unit in the answer, only the number.

Example results:
Query string: Fill in reported normalized growth for this entry: Cc1cccc2nc(-c3ccccc3)oc(=O)c12
Result string: 0.942

Query string: Fill in reported normalized growth for this entry: CC1=C(/C=C/C(C)=C/C=C/C(C)=C/C=C/C=C(C)/C=C/C=C(C)/C=C/C2=C(C)CCCC2(C)C)C(C)(C)CCC1
Result string: 0.982

Further cases:
Query string: Fill in reported normalized growth for this entry: CC[C@]12CCCN3CCc4c(n(c5ccccc45)C(=O)C1)[C@@H]32
Result string: 0.776

Query string: Fill in reported normalized growth for this entry: C/C(=N/NC1=NCCN1)c1ccc(F)cc1
Result string: 0.997

Query string: Fill in reported normalized growth for this entry: CC(=O)OC/C=C(C)/C=C/C=C(C)/C=C/C1=C(C)CCCC1(C)C
Result string: 1.03

Query string: Fill in reported normalized growth for this entry: O=C1N=C(O)CN1/N=C\c1ccc(-c2ccc([N+](=O)[O-])cc2)o1
Result string: 1.05

Query string: Fill in reported normalized growth for this entry: CC(=O)N[C@@H]1[C@@H](C(O)[C@H](O)CO)O[C@](O)(C(=O)O)C[C@@H]1O (some centres not stated)
Result string: 1.03

Query string: Fill in reported normalized growth for this entry: CCOC(N)=O
Result string: 0.977

Query string: Fill in reported normalized growth for this entry: Nc1nc2ncc(CNc3ccc(C(=O)N[C@@H](CCC(=O)O)C(=O)O)cc3)nc2c(=O)[nH]1
Result string: 1

Query string: Fill in reported normalized growth for this entry: NC(=O)N/N=C\c1ccc([N+](=O)[O-])o1
Result string: 1.03

Query string: Fill in reported normalized growth for this entry: O=C1OCCN1/N=C\c1ccc([N+](=O)[O-])o1
Result string: 0.683

Query string: Fill in reported normalized growth for this entry: CCOP(=S)(OCC)SCSP(=S)(OCC)OCC
Result string: 0.829

Query string: Fill in reported normalized growth for this entry: C=CC1=C(C)/C(=C/c2[nH]c(Cc3[nH]c(/C=C4\NC(=O)C(C)=C4C=C)c(C)c3CCC(=O)O)c(CCC(=O)O)c2C)NC1=O
Result string: 1.08

Query string: Fill in reported normalized growth for this entry: CCOC(=O)C1=C[C@]2(CC)CCCN3CCc4c(n1c1ccccc41)[C@@H]32
Result string: 0.852

Query string: Fill in reported normalized growth for this entry: COc1ccc(-c2cc(C(F)F)nn2-c2ccc(S(N)(=O)=O)cc2)cc1F
Result string: 0.992

Query string: Fill in reported normalized growth for this entry: O=c1[nH]cnc2ccc(Br)cc12
Result string: 1.01

Query string: Fill in reported normalized growth for this entry: O=C1CN(/N=C\c2ccc([N+](=O)[O-])o2)C(=O)N1
Result string: 1.04

Ref: PubChem BioAssay AID1159580
